test_details: Binding affinity to preQ1
metric_name: Kd (nM)

>>> value_reported("NCCOc1ccc2oc3ccccc3c2c1")
500

---

test_details: Binding affinity to pre-miR-200c (unknown origin) assessed as dissociation constant
pKd: −log10 of the molar value.
metric_name: pKd

>>> value_reported("O=C(Nc1ccc(C2=NCCN2)cc1)c1cc(C(=O)Nc2ccc(C3=NCCN3)cc2)cc(C(=O)Nc2ccc(C3=NCCN3)cc2)c1")
5.96

---

test_details: Binding affinity to pre-miR-544 (unknown origin) assessed as dissociation constant
metric_name: Kd (µM)

>>> value_reported("N#Cc1c(N2CCCC2)nc(N)c2c(N)nc(N3CCCC3)cc12")
1

All values here come from ChEMBL document CHEMBL5257055.
